# Test system: Aspergillus fumigatus
# assay_comment: microbe, parasite or virus in culture
# Type: functional
# Description: In vitro antifungal activity against Aspergillus fumigatus 48238E
List of MIC values.
assay_metric: MIC (mg/L)

INSERT INTO assay_data (molecule, assay_metric, reading_qualifier, value_measured) VALUES
  ('CC/C(=N\OC(Cn1ccnc1)c1ccc(Cl)cc1Cl)c1ccc(Cl)cc1Cl (stereo unspecified)', 'MIC', '>', 128),
  ('Clc1ccc(/C(Cn2ccnc2)=N/OC(Cn2ccnc2)c2ccc(Cl)cc2Cl)c(Cl)c1 (stereo unspecified)', 'MIC', '=', 128),
  ('Clc1ccc(C(Cn2ccnc2)O/N=C/c2ccc(OCCN3CCOCC3)cc2)c(Cl)c1 (stereo unspecified)', 'MIC', '=', 2),
  ('Cl.Fc1ccc(C(Cn2ccnc2)O/N=C/c2c(F)cccc2F)c(F)c1 (stereo unspecified)', 'MIC', '=', 32),
  ('OC(Cn1cncn1)(Cn1cncn1)c1ccc(F)cc1F [FLUCONAZOLE]', 'MIC', '>', 128),
  ('C/C(=N\OC(Cn1ccnc1)c1ccc(F)cc1F)c1ccc(F)cc1 (stereo unspecified)', 'MIC', '=', 16),
  ('CCC/C(=N\OC(Cn1ccnc1)c1ccc(Cl)cc1Cl)c1ccc(Cl)cc1Cl (stereo unspecified)', 'MIC', '>', 128),
  ('C/C(=N\OC(Cn1ccnc1)c1ccc(F)cc1F)c1ccc(OCCN2CCOCC2)cc1 (stereo unspecified)', 'MIC', '=', 16),
  ('C/C(=N\OC(Cn1ccnc1)c1ccc(F)cc1F)c1c(F)cccc1F (stereo unspecified)', 'MIC', '=', 16),
  ('C/C(=N\OC(Cn1ccnc1)c1ccc(F)cc1F)c1ccc(F)cc1F (stereo unspecified)', 'MIC', '=', 8),
  ('C/C(=N\OC(Cn1ccnc1)c1ccc(F)cc1F)c1cc(F)ccc1F (stereo unspecified)', 'MIC', '=', 4),
  ('C/C(=N\OC(Cn1ccnc1)c1ccc(F)cc1F)c1ccccc1F.Cl (stereo unspecified)', 'MIC', '=', 16),
  ('Fc1ccc(C(Cn2ccnc2)O/N=C/c2ccc(OCCN3CCOCC3)cc2)c(F)c1 (stereo unspecified)', 'MIC', '=', 64),
  ('Clc1ccc(CO/N=C(\Cn2ccnc2)c2ccc(Cl)cc2Cl)c(Cl)c1 [OXICONAZOLE]', 'MIC', '=', 2),
  ('Fc1ccc(/C(Cn2ccnc2)=N/OC(Cn2ccnc2)c2ccc(F)cc2F)c(F)c1 (stereo unspecified)', 'MIC', '>', 128),
  ('Cl.Clc1ccc(/C=N/OC(Cn2ccnc2)c2ccc(Cl)cc2Cl)c(Cl)c1 (stereo unspecified)', 'MIC', '=', 64);

----------
Parameter: log10(MIC). Scope: all listed entries.
# Tested on: Nakaseomyces glabratus
# assay_comment: microbe, parasite or virus in culture
# Assay type: functional
# Description: In vitro antifungal activity against Candida glabrata 2375E
assay_metric: log10(MIC) (log10 of the value in µg/mL)

INSERT INTO results (compound, value_measured) VALUES
  ('C/C(=N\OC(Cn1ccnc1)c1ccc(Cl)cc1Cl)c1ccc(Cl)cc1Cl (configuration not stated)', -0.30),
  ('C/C(=N\OC(Cn1ccnc1)c1ccc(Cl)cc1Cl)c1ccc(OCCN2CCOCC2)cc1 (configuration not stated)', -1.22),
  ('Clc1ccc(CO/N=C(\Cn2ccnc2)c2ccc(Cl)cc2Cl)c(Cl)c1 [OXICONAZOLE]', -2.00),
  ('Fc1ccc(C(Cn2ccnc2)O/N=C/c2ccc(OCCN3CCOCC3)cc2)c(F)c1 (configuration not stated)', 0.30),
  ('C/C(=N\OC(Cn1ccnc1)c1ccc(F)cc1F)c1ccc(F)cc1F (configuration not stated)', -1.52),
  ('Clc1ccc(C(Cn2ccnc2)O/N=C/c2ccc(OCCN3CCOCC3)cc2)c(Cl)c1 (configuration not stated)', 0.00),
  ('Fc1ccc(/C(Cn2ccnc2)=N/OC(Cn2ccnc2)c2ccc(F)cc2F)c(F)c1 (configuration not stated)', 0.60);
